Target: preformed amyloid fibrils from TGFBIp611-633 G623R peptide (Homo sapiens, UniProt Q15582, G623R)
Construct: The 23-amino acid long peptide (TGFBIp 611-633 c.623 G>R) from the 4th FAS1 domain; purchased Synpeptide Co Ltd, Shanghai, China; host or cells: synthetic peptide
Sequence (Q15582 611-633 G623R limits assumed): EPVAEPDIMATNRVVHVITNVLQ
Experiment: Circular Dichroism assay (θ[218]), disaggregation of preformed amyloid fibrils
Format: biochemical
Details: 200 mM, 72 h, preformed fibrils; read-out: % Inhibition (mean ± SD) n = 3, θ[218] of preformed amyloid fibrils, circular dichroism

compound	measure.unit	inhibition at 200000 µM
CNCC(=O)O [Sarcosine, sarcosine]	%	41
C[N+](C)(C)CC(=O)O [Betaine, betaine]	%	36
